Target: KRAS G12C (Homo sapiens, UniProt P01116, G12C)
Construct: GST-tagged KRAS WT or mutant protein (amino acids 2-169)
Sequence (P01116 2-169 isoform P01116-2 G12C): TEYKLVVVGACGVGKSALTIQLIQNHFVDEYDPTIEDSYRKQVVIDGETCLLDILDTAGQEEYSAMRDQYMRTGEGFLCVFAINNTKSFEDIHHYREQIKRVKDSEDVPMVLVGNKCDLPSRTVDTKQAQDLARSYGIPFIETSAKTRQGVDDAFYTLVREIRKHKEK
Assay: KRAS Nucleotide Exchange Assay (SOS1-mediated), G12C
Settings: HTRF, 60 minutes preincubation, approximately 25 minutes reaction
READOUT_NAME: IC50 (nM)
Write the value in nM as a bare number.

Illustrative cases are given below, each with its answer.
COMPOUND	READOUT_NAME	ASSAY_RESULT
C#Cc1c(F)ccc2cc(O)cc(-c3nc4c5c(nc(OC[C@@]67CCCN6C[C@H](F)C7)nc5c3F)N(C(C)c3cccnc3N)CCO4)c12 (stereo partly shown)	IC50	0.609
C[C@H](c1cccnc1N)N1C[C@H](C)Oc2nc(-c3cc(O)cc4ccc(F)c(F)c34)c(F)c3nc(OC[C@@]45CCCN4C[C@H](F)C5)nc1c23 (stereo in doubt) [Example 10a]	IC50	0.608
CC(c1cccnc1N)N1CCOc2nc(-c3cc(O)cc4ccc(F)c(F)c34)c(F)c3nc(OC[C@@]45CCCN4C[C@H](F)C5)nc1c23 (stereo partly shown)	IC50	0.916

Switching to the query record.
Look up IC50 of CCc1c(F)ccc2cc(O)cc(-c3nc4c5c(nc(OC[C@@]67CCCN6C[C@H](F)C7)nc5c3F)N(C(C)c3cccnc3N)CCO4)c12 (mixture of isomers) and report it.
1.78

====

Biological target: KRAS G12D (Homo sapiens, UniProt P01116, G12D)
Construct: GST-tagged KRAS WT or mutant protein (amino acids 2-169)
Sequence (P01116 2-169 isoform P01116-2 G12D): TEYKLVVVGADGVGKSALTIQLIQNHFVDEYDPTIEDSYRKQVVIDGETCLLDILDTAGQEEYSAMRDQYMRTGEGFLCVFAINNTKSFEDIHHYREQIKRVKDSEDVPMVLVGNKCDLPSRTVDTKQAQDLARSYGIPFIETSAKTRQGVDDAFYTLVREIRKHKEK
Experiment: KRAS Nucleotide Exchange Assay (SOS1-mediated), G12D
Conditions: HTRF, 20 nM KRAS, 12.5 nM SOS1, 60 minutes preincubation, approximately 25 minutes reaction
Procedure: Test Example 1: KRAS Nucleotide Exchange Assay Evaluation of the inhibitory effect of compounds on SOS1-mediated nucleotide exchange activity of KIRAS^WT, KRAS^G12D, KRAS^G12V, KRAS^G12C and KRAS^G13D mutants […] • 1. […] The reaction was monitored at Ex/Em=(337/665; 337/620) using a Pherastar Plate Reader (BMG). • 6. HTRF signals were analyzed approximately 25 minutes after the start of the reaction (60 minutes reaction for G12V). • 7. […]
Item-by-item account of pIC50
Answer as the number alone; pIC50 is minus log10 of concentration in mol/L.

Some compounds with known pIC50 results, for comparison:
COMPOUND	TESTED_TARGET	pIC50
C#Cc1c(F)ccc2cc(O)cc(-c3nc4c5c(nc(OC[C@@]67CCCN6C[C@H](F)C7)nc5c3F)N(CC3(N(C)C)CCC3)CCO4)c12	KRAS G12D (Homo sapiens, UniProt P01116, G12D)	8.87
CCc1c(F)ccc2cc(O)cc(-c3nc4c5c(nc(OC[C@@]67CCCN6C[C@H](F)C7)nc5c3F)N([C@H](C)c3cccnc3N)C[C@H](C)O4)c12	KRAS G12D (Homo sapiens, UniProt P01116, G12D)	8.24
CC(c1cccnc1N)N1CCOc2nc(-c3cc(O)cc4ccc(F)c(F)c34)c(F)c3nc(OC[C@@]45CCCN4C[C@H](F)C5)nc1c23 (stereo partly drawn)	KRAS G12D (Homo sapiens, UniProt P01116, G12D)	8.63
C[C@H](c1cccnc1N)N1C[C@H](C)Oc2nc(-c3cc(O)cc4ccc(F)c(F)c34)c(F)c3nc(OC[C@@]45CCCN4C[C@H](F)C5)nc1c23 (stereo in doubt) [Example 10a]	KRAS G12D (Homo sapiens, UniProt P01116, G12D)	8.44
C#Cc1c(F)ccc2cc(O)cc(-c3nc4c5c(nc(OC[C@@]67CCCN6C[C@H](F)C7)nc5c3F)N(C(C)c3cccnc3N)CCO4)c12 (stereo partly drawn)	KRAS G12D (Homo sapiens, UniProt P01116, G12D)	8.78

# input for lookup
Report pIC50, nothing else, for this compound: CCc1c(F)ccc2cc(O)cc(-c3nc4c5c(nc(OC[C@@]67CCCN6C[C@H](F)C7)nc5c3F)N([C@@H](C)c3cccnc3N)C[C@H](C)O4)c12
6.75

====

Target: KRAS G12V (Homo sapiens, UniProt P01116, G12V)
Construct: GST-tagged KRAS WT or mutant protein (amino acids 2-169)
Sequence (P01116 2-169 isoform P01116-2 G12V): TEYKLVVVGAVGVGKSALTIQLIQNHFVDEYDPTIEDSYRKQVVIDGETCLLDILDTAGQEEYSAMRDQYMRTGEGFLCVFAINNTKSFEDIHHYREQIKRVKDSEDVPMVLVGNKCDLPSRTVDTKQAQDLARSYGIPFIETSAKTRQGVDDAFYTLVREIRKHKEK
Test: KRAS Nucleotide Exchange Assay (SOS1-mediated), G12V
Conditions: HTRF, 20 nM KRAS, 50 nM SOS1, 60 minutes preincubation, 60 minutes reaction
Recorded pIC50, one value per entry.
// field semantics: pIC50 = negative decimal log of concentration (mol/L)

Worked cases, pIC50 given:
COMPOUND	ASSAY_RESULT
CCc1c(F)ccc2cc(O)cc(-c3nc4c5c(nc(OC[C@@]67CCCN6C[C@H](F)C7)nc5c3F)N(CC3(N(C)C)CCC3)CCO4)c12	7.48
CCc1c(F)ccc2cc(O)cc(-c3nc4c5c(nc(OC[C@@]67CCCN6C[C@H](F)C7)nc5c3F)N(C(C)c3cccnc3N)C[C@H](C)O4)c12 (some centres unmarked)	8.49
CC(c1cccnc1N)N1CCOc2nc(-c3cc(O)cc4ccc(F)c(F)c34)c(F)c3nc(OC[C@@]45CCCN4C[C@H](F)C5)nc1c23 (some centres unmarked)	8.64
C#Cc1c(F)ccc2cc(O)cc(-c3nc4c5c(nc(OC[C@@]67CCCN6C[C@H](F)C7)nc5c3F)N(C(C)c3cccnc3N)CCO4)c12 (some centres unmarked)	8.86
CCc1c(F)ccc2cc(O)cc(-c3nc4c5c(nc(OC[C@@]67CCCN6C[C@H](F)C7)nc5c3F)N(C(C)c3cccnc3N)CCO4)c12 (mixture of isomers)	8.55

Enter pIC50 (test system KRAS G12V (Homo sapiens, UniProt P01116, G12V)) for C[C@H](c1cccnc1N)N1C[C@H](C)Oc2nc(-c3cc(O)cc4ccc(F)c(F)c34)c(F)c3nc(OC[C@@]45CCCN4C[C@H](F)C5)nc1c23 (stereo in doubt) [Example 10a]
8.80

Output reported pIC50 of the compound CCc1c(F)ccc2cc(O)cc(-c3nc4c5c(nc(OC[C@@]67CCCN6C[C@H](F)C7)nc5c3F)N([C@H](C)c3cccnc3N)C[C@H](C)O4)c12 on KRAS G12V (Homo sapiens, UniProt P01116, G12V).
8.66

Write down the reported pIC50 (system: KRAS G12V (Homo sapiens, UniProt P01116, G12V)) of CCc1c(F)ccc2cc(O)cc(-c3nc4c5c(nc(OC[C@@]67CCCN6C[C@H](F)C7)nc5c3F)N([C@@H](C)c3cccnc3N)C[C@H](C)O4)c12
7.21

====

Target: KRAS G13D (Homo sapiens, UniProt P01116, G13D)
Construct: GST-tagged KRAS WT or mutant protein (amino acids 2-169)
Sequence (P01116 2-169 isoform P01116-2 G13D): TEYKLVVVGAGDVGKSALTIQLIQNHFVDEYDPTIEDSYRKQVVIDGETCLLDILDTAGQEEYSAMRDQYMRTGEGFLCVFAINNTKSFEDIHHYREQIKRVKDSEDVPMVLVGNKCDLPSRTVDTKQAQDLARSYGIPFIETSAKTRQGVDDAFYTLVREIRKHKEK
Assay: KRAS Nucleotide Exchange Assay (SOS1-mediated), G13D
Details: HTRF, 60 minutes preincubation, approximately 25 minutes reaction
Measured pIC50 accompanies every entry in the list below.
In simple prose, pIC50 is minus the logarithm base ten of a concentration in moles per litre.

# count of solved cases: 3
COMPOUND	ASSAY_RESULT
C[C@H](c1cccnc1N)N1C[C@H](C)Oc2nc(-c3cc(O)cc4ccc(F)c(F)c34)c(F)c3nc(OC[C@@]45CCCN4C[C@H](F)C5)nc1c23 (stereo in doubt) [Example 10a]	8.16
C#Cc1c(F)ccc2cc(O)cc(-c3nc4c5c(nc(OC[C@@]67CCCN6C[C@H](F)C7)nc5c3F)N(C(C)c3cccnc3N)CCO4)c12 (stereo partly shown)	8.43
CC(c1cccnc1N)N1CCOc2nc(-c3cc(O)cc4ccc(F)c(F)c34)c(F)c3nc(OC[C@@]45CCCN4C[C@H](F)C5)nc1c23 (stereo partly shown)	8.31

Next:
# return recorded pIC50 for entry CCc1c(F)ccc2cc(O)cc(-c3nc4c5c(nc(OC[C@@]67CCCN6C[C@H](F)C7)nc5c3F)N(C(C)c3cccnc3N)CCO4)c12 (mixture of isomers)
8.06

====

Entries and their measured pIC50 follow.
Test system: SW480 cells
Assay: Cell Proliferation Assay, SW480 (CellTiter-Glo 2.0 viability)
Format: cell-based
Conditions: Homo sapiens; SW480 colon cancer (KRAS G12V mutation); 72 hours
Procedure: Test Example 3: Cell Proliferation Assay Cell viability testing of test compounds in AsPC-1 pancreatic cancer (KRAS G12D mutation) or SW480 colon cancer (KRAS G12V mutation) cells for 72 hours […] • 1. […] The contents were mixed for 2 minutes on an orbital shaker, and the luminescence signal was stabilized at room temperature for 15 minutes. • 7. […] IC50 values were calculated based on the Sigmoidal dose-response equation in the GraphPad Prism 4 program.
pIC50: −log10 of the molar value.

Record excerpt, results attached:
COMPOUND	READOUT_NAME	ASSAY_RESULT
C#Cc1c(F)ccc2cc(O)cc(-c3nc4c5c(nc(OC[C@@]67CCCN6C[C@H](F)C7)nc5c3F)N(C(C)c3ccccc3N)CCO4)c12 (stereo partly drawn)	pIC50	> 6.00
CCc1c(F)ccc2cc(O)cc(-c3nc4c5c(nc(OC[C@@H]6CC[C@H]7COCCN76)nc5c3F)N(C(C)c3cccnc3N)CCO4)c12 (stereo partly drawn)	pIC50	> 6.00
C#Cc1c(F)ccc2cc(O)cc(-c3nc4c5c(nc(OCC6C[C@@H](F)CN6C)nc5c3F)N(C(C)c3cccnc3N)CCO4)c12 (stereo partly drawn)	pIC50	> 6.00
CCc1c(F)ccc2cc(O)cc(-c3nc4c5c(nc(OC[C@@]67CCCN6C[C@H](F)C7)nc5c3F)N(C(C)c3cc(C)cnc3N)CCO4)c12 (stereo partly drawn)	pIC50	> 6.00
C#Cc1c(F)ccc2cc(O)cc(-c3nc4c5c(nc(OCC6(CN7CCOCC7)CC6)nc5c3F)N(C(C)c3cccnc3N)CCO4)c12 (stereo not drawn)	pIC50	> 6.00
CCc1c(F)ccc2cc(O)cc(-c3nc4c5c(nc(OCC6(C#N)CCOCC6)nc5c3F)N(C(C)c3cccnc3N)CCO4)c12 (stereo not drawn)	pIC50	5.00 to 6.00
C#Cc1c(F)ccc2cc(O)cc(-c3nc4c5c(nc(OC[C@@]67CCCN6C[C@H](F)C7)nc5c3F)N([C@H](C)c3cccnc3N)C[C@H](C)O4)c12	pIC50	5.00 to 6.00
C#Cc1c(F)ccc2cc(O)cc(-c3nc4c5c(nc(OC[C@@]67CCCN6C[C@H](F)C7)nc5c3F)N([C@H](C)c3cccnc3N)CCO4)c12 [Example 13a]	pIC50	> 6.00

Give pIC50 for the following compound: CCc1c(F)ccc2cc(O)cc(-c3nc4c5c(nc(OC[C@@]67CCCN6C[C@H](OC)C7)nc5c3F)N(C(C)c3cccnc3N)CCO4)c12 (stereo partly drawn)
> 6.00
